MIC for assorted compounds
system: Enterococcus faecalis; assay: Antibacterial activity against vancomycin-resistant Enterococcus faecalis ATCC 51299; format: functional

| COMPOUND | MIC |
| --- | --- |
| CC(C)Cc1ccc(C(C)CN2C(=N)N([C@H](CC3CCCCC3)CN3CCCC3CN3C(N)=NC[C@@H]3Cc3ccccc3)C[C@H]2CC2CCCCC2)cc1 (stereo partly specified) | 2.5 µg/mL |
| CC(C)Cc1ccc(C(C)CN2C(=N)N([C@H](Cc3ccc4ccccc4c3)CN3CCCC3CN3C(N)=NC[C@@H]3Cc3ccccc3)C[C@H]2CC2CCCCC2)cc1 (stereo partly specified) | < 2.5 µg/mL |
| CC(C)Cc1ccc(C(C)CN2C(=N)N([C@H](Cc3ccc4ccccc4c3)CN3CCCC3CN3C(N)=NC[C@@H]3Cc3ccccc3)C[C@@H]2CC2CCCCC2)cc1 (stereo partly specified) | < 2.5 µg/mL |
| CC(C)Cc1ccc(C(C)CN2C(=N)N([C@H](CC3CCCCC3)CN3CCCC3CN3C(N)=NC[C@@H]3Cc3ccccc3)C[C@@H]2CC2CCCCC2)cc1 (stereo partly specified) | < 2.5 µg/mL |
| C[C@H]1CN=C(N)N1CC1CCCN1C[C@H](CC1CCCCC1)N1C[C@@H](CC2CCCCC2)N(CCc2cc(C(F)(F)F)cc(C(F)(F)F)c2)C1=N (stereo partly specified) | < 2.5 µg/mL |
| N=C1N(CCc2cc(C(F)(F)F)cc(C(F)(F)F)c2)[C@@H](CC2CCCCC2)CN1[C@@H](CC1CCCCC1)CN1CCCC1CN1C(N)=NC[C@@H]1Cc1ccccc1 (stereo partly specified) | < 2.5 µg/mL |
| CCCC[C@@H]1CN([C@H](CC2CCCCC2)CN2CCCC2CN2C(N)=NC[C@@H]2C)C(=N)N1CC(C)c1ccc(CC(C)C)cc1 (stereo partly specified) | < 2.5 µg/mL |
| CC(C)Cc1ccc(C(C)CN2C(=N)N([C@H](Cc3ccc4ccccc4c3)CN3CCCC3CN3C(N)=NC[C@@H]3C)C[C@H]2CC2CCCCC2)cc1 (stereo partly specified) | < 2.5 µg/mL |
| N=C1N(CCc2cc(C(F)(F)F)cc(C(F)(F)F)c2)[C@H](CC2CCCCC2)CN1[C@H](CC1CCCCC1)CN1CCCC1CN1C(N)=NC[C@@H]1Cc1ccccc1 (stereo partly specified) | 2.5 µg/mL |
| C[C@H]1CN=C(N)N1CC1CCCN1C[C@@H](Cc1ccc2ccccc2c1)N1C[C@@H](CC2CCCCC2)N(CCc2cc(C(F)(F)F)cc(C(F)(F)F)c2)C1=N (stereo partly specified) | < 2.5 µg/mL |
| CCCC[C@@H]1CN([C@H](CC2CCCCC2)CN2CCCC2CN2C(N)=NC[C@@H]2Cc2ccccc2)C(=N)N1CC(C)c1ccc(CC(C)C)cc1 (stereo partly specified) | < 2.5 µg/mL |

###

MBC for assorted compounds
system: Enterococcus faecalis; test: Antibacterial activity against vancomycin-resistant Enterococcus faecalis ATCC 51299; format: functional

| COMPOUND | EXPERIMENTAL SYSTEM | MBC |
| --- | --- | --- |
| CC(C)Cc1ccc(C(C)CN2C(=N)N([C@H](CC3CCCCC3)CN3CCCC3CN3C(N)=NC[C@@H]3Cc3ccccc3)C[C@@H]2CC2CCCCC2)cc1 (stereo partly specified) | Enterococcus faecalis | > 10 µg/mL |
| CCCC[C@@H]1CN([C@@H](CC2CCCCC2)CN2CCCC2CN2C(N)=NC[C@@H]2Cc2ccccc2)C(=N)N1CCc1cc(C(F)(F)F)cc(C(F)(F)F)c1 (stereo partly specified) | Enterococcus faecalis | < 2.5 µg/mL |
| N=C1N(CCc2cc(C(F)(F)F)cc(C(F)(F)F)c2)[C@H](CC2CCCCC2)CN1[C@H](Cc1ccc2ccccc2c1)CN1CCCC1CN1C(N)=NC[C@@H]1Cc1ccccc1 (stereo partly specified) | Enterococcus faecalis | > 10 µg/mL |
| CC(C)Cc1ccc(C(C)CN2C(=N)N([C@@H](CC3CCCCC3)CN3CCCC3CN3C(N)=NC[C@@H]3Cc3ccccc3)C[C@H]2CC2CCCCC2)cc1 (stereo partly specified) | Enterococcus faecalis | < 2.5 µg/mL |
| CCCC[C@@H]1CN([C@@H](CC2CCCCC2)CN2CCCC2CN2C(N)=NC[C@@H]2C)C(=N)N1CCc1cc(C(F)(F)F)cc(C(F)(F)F)c1 (stereo partly specified) | Enterococcus faecalis | > 10 µg/mL |
| CCCC[C@@H]1CN([C@H](Cc2ccc3ccccc3c2)CN2CCCC2CN2C(N)=NC[C@@H]2C)C(=N)N1CCc1cc(C(F)(F)F)cc(C(F)(F)F)c1 (stereo partly specified) | Enterococcus faecalis | > 10 µg/mL |
